Value source: PubChem BioAssay

assay: reduction of polyQ htt aggregates in cells – imaging, exon1htt(103Q)mCFP cells, high-content imaging, primary screen (AID 483); conditions: exon1htt(103Q)mCFP cell line, aggregate imaging, at 2 µM; measured here: cell count, toxicity;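 also: compound exposure lasted 3 days before fixation; percent of the per-plate median nuclei count of sample wells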
Quantity kind: nuclei count (%)
Please give a number only; it is taken to be in %.

Solved cases (2 shown):
> print(dat)
                                   molecule  endpoint.result
1  N#CC1=C(N)Oc2c(ccc3cccnc23)C1c1cccnc1 (stereo unspecified)               89
2  CCOC(=O)c1[nH]c(C)c(C(=O)NCC2CCCO2)c1C (stereo unspecified)              103

q: # query: nuclei count of entry COc1ccc(C2CC(=O)C(C=NCCCN3CCOCC3)=C(O)C2)cc1 (stereo unspecified)
a: 80.7

q: # input molecule: Cc1cc(C)cc(N(CC(=O)NC2CCC(C)CC2)S(=O)(=O)c2c(C)noc2C)c1 (stereo unspecified) ; wanted: its nuclei count
a: 114

q: Record request: nuclei count value, item `CC1(C)CNC(=O)CC(C)(C)N1O`
a: 89.4

q: Could you share which nuclei count value was measured for `O=C(c1ccc(Cl)c(F)c1F)N1CCCC1` ?
a: 112

q: Consider the molecule `COc1ccccc1N1CCN(Cc2nc(N)nc(Nc3ccc(C)c(Cl)c3)n2)CC1` and give its measured nuclei count.
a: 97.1

q: Request the reported nuclei count associated with `Nc1nnnn1/N=C/c1ccccc1OCc1ccccc1`
a: 101
